Where these numbers come from: ChEMBL document CHEMBL1201862

# Tested on: PC-3
# protocol.text: NCI tumour cell line growth inhibition, 48 h
Calls of active or inactive are those of the source. No stated cut-off is given here; in the data, active = GI50 up to about 1.1 µM and inactive = higher.
property.label: GI50

compound	property.label	reported.value
COC(=O)C1=C(O)C(C(=O)OC)[C@]2(O)[C@H](C(=O)OC)[C@H]1C[C@@H](c1ccc([N+](=O)[O-])cc1)[C@H]2C(=O)OC (stereo not given in full)	GI50	13.9 µM (inactive)
CC(=O)C1=C(C)NC(=C(C#N)C#N)C(C#N)=C1	GI50	> 100 µM (inactive)
Cc1ccc(N2C(=O)C3c4[nH]c5ccccc5c4C4CCC(C(C)(C)C)CC4C3C2=O)cc1 (stereo not given)	GI50	13 µM (inactive)
CCOC(=O)C#Cc1cccc(C#CC(=O)OCC)c1	GI50	6.21 µM (inactive)
C1COCCN1.CN(C)c1ccc(-c2c(C#N)c(N)nc(S)c2C#N)cc1	GI50	30.5 µM (inactive)

# next compound below
GI50 in this record for Cn1c2ccccc2c2cc(-c3ccccc3)c3c(c21)C(=O)C=CC3=O : 18.4 µM (inactive)

====

# Test system: HOP-18
# protocol.text: NCI tumour cell line growth inhibition, 48 h
Calls of active or inactive are those of the source. No stated cut-off is given here; in the data, active = GI50 up to about 1.1 µM and inactive = higher.
Consider the following molecules and their measured GI50 readings.

molecule	GI50
CN(C)CCC[N+]1=Nc2cccc3cccc(c23)N1	> 100 µM (inactive)

GI50 in this record for O=C(Nc1nc2ncn(CCO)c2c(=S)[nH]1)c1ccccc1 : > 100 µM (inactive)

GI50 in this record for COc1ccc2c(c1)Cc1c-2[nH]c2cc3c(cc2c1=O)OCO3 : 17.5 µM (inactive)

GI50 in this record for COc1ccc(C[C@@H]2NC[C@@H](O)[C@@H]2OC(C)=O)cc1 : 1.73 µM (inactive)

GI50 in this record for COc1ccc(C(=O)O/N=C2\CCCC\C2=C/c2ccccc2)cc1 : 51.5 µM (inactive)

GI50 in this record for Cc1c(C(=O)C/C(=N\O)C(=O)Nc2cc(Cl)c(Cl)cc2Cl)[n+]([O-])c2ccccc2[n+]1[O-] : 20.7 µM (inactive)

====

# Test system: MDA-MB-435
# protocol.text: NCI tumour cell line growth inhibition, 48 h
Active and inactive are the calls of the source. No stated cut-off is given here; in the data, active = GI50 up to about 1.1 µM and inactive = higher.
property.label: GI50

# example entries with known answers
molecule	reported.value
COC1=CC(=O)C2=C(C1=O)[C@H]1CC[C@]3(C)C(=O)CC[C@H]3[C@@H]1CC2	19.8 µM (inactive)
COC(c1ccsc1)C(C#N)(C#N)/N=C/c1ccsc1 (stereo not given)	15.5 µM (inactive)
O=[N+]([O-])c1ccc2c3c1[C@H]1O[C@H]1c1cccc(c1-3)[C@@H]1O[C@H]21	1.85 µM (inactive)
O=C(O)/C=C/C=C/c1ccc2c(c1)OCO2 [PIPERIC ACID]	> 100 µM (inactive)
Clc1ccc(COC(Cn2ccnc2)c2ccc(Cl)cc2Cl)c(Cl)c1 (stereo not given) [MICONAZOLE NITRATE]	3.37 µM (inactive)
N#CC(C#N)=C/C=C/c1c(Cl)cccc1Cl	2.14 µM (inactive)
Cc1c(-c2ccccc2)oc(=O)c2ccccc12	15.6 µM (inactive)
Cc1ccc(-c2n[nH]c(=O)n2/N=C\c2ccccc2)cc1	> 100 µM (inactive)

GI50 in this record for CN(C)C(=S)S [SODIUM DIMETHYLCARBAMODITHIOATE] : > 78 µM (inactive)

GI50 in this record for O=C(O)c1ccccc1CN1CCCC(C(=O)O)C1 (stereo not given) : > 100 µM (inactive)

====

Consider the following molecules and their measured GI50 readings.
# Test system: XF498
# protocol.text: NCI tumour cell line growth inhibition, 48 h
Active and inactive are the calls of the source. Rule as the data show it: active = GI50 up to about 1.1 µM and inactive = higher.

# example entries with known answers
molecule	property.label	reported.value
CN(CCc1ccccn1)c1nc(=[N+](C)C)ss1	GI50	> 100 µM (inactive)
N#CC12C3C4CC5C6C4C1C6C(O)(C53)N2Cc1ccccc1 (stereo not given)	GI50	> 100 µM (inactive)
Cc1ccc(NC(=O)C(=O)C(C2C(C)CC(=O)C2CC(=O)O)[N+](=O)[O-])cc1 (stereo not given)	GI50	> 100 µM (inactive)
CCNC(=O)/C(=C/c1ccc(OC)cc1)c1cc(OC)c(OC)c(OC)c1	GI50	17.3 µM (inactive)

Summary: COc1cc2c(c(OC)c1OC)-c1ccc(SC)c(=O)cc1[C@@H](NCc1ccc(F)cc1)CC2 , XF498, GI50 = < 0.0075 µM (active)

Summary: Cc1ccccc1Cn1nc2ccccc2cc1=O , XF498, GI50 = > 100 µM (inactive)

Summary: Cc1ccc(NC(=O)CCc2cc(C(C)(C)C)nc(S)n2)cc1C , XF498, GI50 = > 100 µM (inactive)

Summary: CC(C)NC(C)C(C)c1ccccc1 (stereo not given) , XF498, GI50 = > 100 µM (inactive)

Summary: CCCCCCCCCCCC(=O)CC(=O)c1c(O)cccc1O , XF498, GI50 = 18.5 µM (inactive)

Summary: N=c1c2ccccc2sc2nc3ccccc3n12 , XF498, GI50 = 85.1 µM (inactive)

====

# Tested on: HOP-92
# protocol.text: NCI tumour cell line growth inhibition, 48 h
Activity calls are given as the source filed them. Cut-off read from the data, not from the text of the source: active = GI50 up to about 1.1 µM and inactive = higher.
property.label: GI50

# example entries with known answers
molecule	GI50
O=C(NC(=S)Nc1ccccc1)c1ccc([N+](=O)[O-])cc1	35.9 µM (inactive)
Cc1cnoc1NS(=O)(=O)c1ccc(Nc2nnc(/C=C/c3c(O)ccc4ccccc34)c(=O)n2N)cc1	41.3 µM (inactive)
O=c1cc(N2CCNCC2)nc2ccccn12	> 100 µM (inactive)
Fc1cccc2c1cc1ccc3cccc4ccc2c1c34	> 100 µM (inactive)
O=S(=O)(c1ccccc1)n1c(C(O)c2ccncc2)cc2ccccc21 (stereo not drawn)	27 µM (inactive)

GI50 in this record for CC(C)CC(NC(=O)C(C)(CI)Cc1ccccc1)C(=O)Nc1ccccc1 (stereo not drawn) : > 100 µM (inactive)

GI50 in this record for O=C(CCC(=O)Nc1ccc(Cl)cc1)CC(=O)c1ccc2ccccc2c1 : > 100 µM (inactive)

GI50 in this record for O=C1c2ccccc2C(=O)c2c(NC(=O)c3ccc4c5c(ncnc35)-c3ccccc3C4=O)cccc21 : 53.3 µM (inactive)

GI50 in this record for O=c1[nH]c(-n2[nH]c3c(c2=O)CCCC3)nc(O)c1-c1ccccc1 : > 100 µM (inactive)

GI50 in this record for COc1ccc2c(c1)Cc1c-2[nH]c2cc3c(cc2c1=O)OCO3 : 17.7 µM (inactive)

GI50 in this record for CCCCCCCCCCCCCCCCCC(CCCCCCCCCCCCCCCCC)OP(=O)(O)O : > 100 µM (inactive)

GI50 in this record for COC(c1ccsc1)C(C#N)(C#N)/N=C/c1ccsc1 (stereo not drawn) : 12 µM (inactive)

GI50 in this record for O=C(NCCC1CNc2ccccc21)OCc1ccccc1 (stereo not drawn) : > 100 µM (inactive)

====

Consider the following compounds and their measured GI50 readings.
# Test system: M14
# protocol.text: NCI tumour cell line growth inhibition, 48 h
The source made the active and inactive calls. No stated cut-off is given here; in the data, active = GI50 up to about 1.1 µM and inactive = higher.

# example entries with known answers
compound	reported.value
COc1cc2ccnc([C@@H](OC(=O)c3ccccc3)c3ccc(OC)c(OC)c3OC)c2cc1OC	78.3 µM (inactive)
C/C(=C\CO)CC/C=C(\C)CNc1c(F)c(F)c(F)c(F)c1F	38.2 µM (inactive)
CC(C)(N)CO[C@H]1C[C@H]2CC[C@@]1(C)C2(C)C	16 µM (inactive)

GI50 in this record for Cc1ccc(I)cc1N=C=S : 20.2 µM (inactive)

GI50 in this record for O=C1CCSc2nc(-c3ccc4c(c3)OCO4)nn21 : > 10 µM (inactive)

GI50 in this record for O=c1ssc(Cl)c1Nc1c(Cl)ssc1=O : 19.2 µM (inactive)

GI50 in this record for COc1ccc(N(C(=O)Nc2ccc(Cl)c(Cl)c2)C2c3cccn3C(=O)N2c2ccc(Cl)c(Cl)c2)cc1 (stereo not given) : 19.1 µM (inactive)

====

# Test system: 786-0
# protocol.text: NCI tumour cell line growth inhibition, 48 h
Active and inactive are the calls of the source. Rule as the data show it: active = GI50 up to about 1.1 µM and inactive = higher.
property.label: GI50

# example entries with known answers
compound	measured.target	GI50
C=CCCC1(CC(Sc2ccccc2)P(=O)(c2ccccc2)c2ccccc2)OCCO1 (centres undefined)	786-0	> 10 µM (inactive)
COc1cc(C(=O)O[C@H]2CCC3CCC2N3C)cc(OC)c1OC (some centres undefined)	786-0	> 100 µM (inactive)

GI50 in this record for CC1=C[C@@H]2[C@@H](CC(CO)=C[C@H]3[C@@H]4C(C)(C)[C@]4(OCC(C)C)[C@H](OCC(C)C)[C@@H](C)[C@]23O)C1=O : 1.47 µM (inactive)

GI50 in this record for N=C(N)N/N=C/c1c(-c2ccc([N+](=O)[O-])cc2)nc2n1CCS2 : 6.67 µM (inactive)
